# assayedSystem: DPP-4 (UniProt P27487)
# Sequence (P27487 29-766): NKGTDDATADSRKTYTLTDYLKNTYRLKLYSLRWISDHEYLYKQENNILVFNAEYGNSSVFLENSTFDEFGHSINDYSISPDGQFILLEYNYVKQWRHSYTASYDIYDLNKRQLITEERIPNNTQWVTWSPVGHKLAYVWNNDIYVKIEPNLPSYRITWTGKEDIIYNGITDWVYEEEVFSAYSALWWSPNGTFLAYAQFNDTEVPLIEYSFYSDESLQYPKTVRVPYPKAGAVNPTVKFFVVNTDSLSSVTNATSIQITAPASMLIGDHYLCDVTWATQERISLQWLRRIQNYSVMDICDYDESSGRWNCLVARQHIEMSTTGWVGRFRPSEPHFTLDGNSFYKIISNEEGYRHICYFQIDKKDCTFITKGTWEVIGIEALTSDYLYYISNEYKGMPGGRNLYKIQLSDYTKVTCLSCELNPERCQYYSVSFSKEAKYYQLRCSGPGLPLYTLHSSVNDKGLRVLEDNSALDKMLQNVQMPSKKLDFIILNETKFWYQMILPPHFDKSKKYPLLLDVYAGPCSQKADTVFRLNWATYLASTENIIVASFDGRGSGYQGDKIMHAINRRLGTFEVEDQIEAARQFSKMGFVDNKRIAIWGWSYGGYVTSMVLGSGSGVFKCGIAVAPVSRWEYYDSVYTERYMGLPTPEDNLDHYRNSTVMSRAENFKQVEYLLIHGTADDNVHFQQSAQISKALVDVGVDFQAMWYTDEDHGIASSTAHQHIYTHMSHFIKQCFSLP
# procedureSummary: other, DPP-4 inhibition
Non-standard residues stand in square brackets, D forms with d. No end group written: not given here. Hyp = O=C(O)[C@@H]1C[C@@H](O)CN1
measuredAttribute: IC50 (µg/mL)

Here is how some binders turned out for IC50.
Lookup: Please give the documented IC50 of GPV [GlyProVal]
Found: 100

Lookup: Complete the entry with IC50 for APG [AlaProGly]
Found: 8

Lookup: Find the measured IC50 of Ala-[Hyp]-Gly [AlaHypGly] and report it.
Found: 2450

Lookup: Please report the measured IC50 for L[Hyp]GPA [LeuHypGlyProAla]
Found: 390

Lookup: Answer with reported IC50 of LPG [LeuProGly]
Found: 14

a: Leu-[Hyp]-Gly [LeuHypGly]
b: GPS [GlyProSer]
Lookup: Hi, I'm comparing two records. Which one has the lower IC50, a or b ? Kindly state the label of the option you pick.
Found: a

I: Ile-[Hyp]-Gly [IleHypGly]
II: GPQ [GlyProGln]
Lookup: Which of the two gives a bigger number for IC50: I or II ? Selection: enter the item's label.
Found: I
(I: 150 µg/mL, II: 93 µg/mL)

P: GPA [GlyProAla]
Q: GPIGPV [GlyProIleGlyProVal]
Lookup: Hi, I'm comparing P with Q and wondering which one has the bigger number for IC50. Any idea? Answer format: the label of the selected item.
Found: P
(P: 71 µg/mL, Q: 5 µg/mL)

Data provenance: patent US9486491
